protocolDetails: Antiproliferative activity against human PC3 cells after 72 hrs by XTT assay
Format: functional, cell-based
conditionLabel: PC-3, 72 h
Overview of recorded log10(IC50) for various compounds
readoutLabel: log10(IC50) (log10 of the value in µM)

smilesStructure	measured
Cc1cccc2nc3c(nc12)-c1ccccc1/C3=N\OCCCN(C)C.Cl	0.85
C(=N\OCCN1CCCC1)/c1cccc2nc3c(nc12)-c1ccccc1/C3=N\OCCN1CCCC1.Cl	0.71
O/N=C\c1cccc2nc3c(nc12)-c1ccccc1/C3=N/O	0.98
Cl.c1ccc2c(c1)/C(=N\OCCN1CCCC1)c1nc3ccccc3nc1-2	0.93
CN(C)CCCO/N=C1\c2ccccc2-c2nc3c(C(=O)NCCN4CCCC4)cccc3nc21.Cl	-0.17
CN(C)CCCO/N=C1\c2ccccc2-c2nc3c(CN4CCC(N5CCCCC5)CC4)cccc3nc21.Cl	0.79
CN(C)CCCO/N=C1\c2ccccc2-c2nc3c(CN4CCOCC4)cccc3nc21.Cl	1.00
CN(C)CCCO/N=C1\c2ccccc2-c2nc3c(CN4CCCCC4)cccc3nc21.Cl	-0.04

* * *

Overview of recorded pIC50 for various molecules
protocolDetails: Antiproliferative activity against human HuH7 cells after 72 hrs by XTT assay
Type: functional, cell-based
conditionLabel: Huh-7, 72 h
pIC50: −log10 of the molar value.
readoutLabel: pIC50

smilesStructure	measured
Cc1cccc2nc3c(nc12)-c1ccccc1C3=O	< 5.00
O=C1c2ccccc2-c2nc3c(CN4CCOCC4)cccc3nc21	< 5.00
O=Cc1cccc2nc3c(nc12)-c1ccccc1C3=O	< 5.00
O=C1c2ccccc2-c2nc3c(C(=O)NCCN4CCOCC4)cccc3nc21	< 5.00
CN(C)CCCO/N=C1\c2ccccc2-c2nc3c(C(=O)O)cccc3nc21	< 5.00
O=C1c2ccccc2-c2nc3ccccc3nc21	< 5.00
O=C1c2ccccc2-c2nc3c(CN4CCCCC4)cccc3nc21	< 5.00
O=C1c2ccccc2-c2nc3c(C(=O)O)cccc3nc21	< 5.00
CN(C)CCCNC(=O)c1cccc2nc3c(nc12)-c1ccccc1/C3=N\OCCCN(C)C.Cl	6.19
CN(C)CCCO/N=C1\c2ccccc2-c2nc3c(CN4CCCC4)cccc3nc21.Cl	6.49
CN(C)CCCO/N=C1\c2ccccc2-c2nc3c(CN4CCCCC4)cccc3nc21.Cl	6.20
O=C1c2ccccc2-c2nc3c(CN4CCC(N5CCCCC5)CC4)cccc3nc21	< 5.00
CN(C)CCCO/N=C1\c2ccccc2-c2nc3c(CN4CCOCC4)cccc3nc21.Cl	5.17
O/N=C\c1cccc2nc3c(nc12)-c1ccccc1/C3=N/O	5.06
CN(C)Cc1cccc2nc3c(nc12)-c1ccccc1C3=O	< 5.00

* * *

System: Escherichia coli
protocolDetails: Binding affinity to Escherichia coli negative supercoiled pBR322 DNA at 10 uM after 12 hrs by ethidium bromide staining based agarose gel electrophoresis
Active and inactive are the calls of the source. No cut-off for these calls is given here.
Outcome codes: 1 = active, 0 = inactive

smilesStructure	targetOrTestSystem	discreteLabel
CN(C)Cc1cccc2nc3c(nc12)-c1ccccc1C3=O	Escherichia coli	0
CN(C)CCCO/N=C1\c2ccccc2-c2nc3c(CN4CCCC4)cccc3nc21.Cl	Escherichia coli	1
CN(C)CCCO/N=C1\c2ccccc2-c2nc3c(C(=O)NCCN4CCOCC4)cccc3nc21.Cl	Escherichia coli	1
CN(C)CCCNC(=O)c1cccc2nc3c(nc12)-c1ccccc1C3=O	Escherichia coli	0
O=C1c2ccccc2-c2nc3c(CN4CCOCC4)cccc3nc21	Escherichia coli	0
Cc1cccc2nc3c(nc12)-c1ccccc1C3=O	Escherichia coli	0
O=C1c2ccccc2-c2nc3c(C(=O)NCCN4CCCC4)cccc3nc21	Escherichia coli	0
O=C1c2ccccc2-c2nc3c(CN4CCC(N5CCCCC5)CC4)cccc3nc21	Escherichia coli	0
CN(C)CCCO/N=C1\c2ccccc2-c2nc3c(CN4CCCCC4)cccc3nc21.Cl	Escherichia coli	1
CN(C)CCCNC(=O)c1cccc2nc3c(nc12)-c1ccccc1/C3=N\OCCCN(C)C.Cl	Escherichia coli	1
O=C1c2ccccc2-c2nc3ccccc3nc21	Escherichia coli	0
CN(C)CCNC(=O)c1cccc2nc3c(nc12)-c1ccccc1C3=O	Escherichia coli	0
CN(C)CCCO/N=C/c1cccc2nc3c(nc12)-c1ccccc1/C3=N\OCCCN(C)C.Cl	Escherichia coli	0
O=C1c2ccccc2-c2nc3c(C(=O)NCCN4CCOCC4)cccc3nc21	Escherichia coli	0
CN(C)CCCO/N=C1\c2ccccc2-c2nc3c(CN4CCC(N5CCCCC5)CC4)cccc3nc21.Cl	Escherichia coli	0
CN(C)CCCO/N=C1\c2ccccc2-c2nc3c(C(=O)NCCN4CCCC4)cccc3nc21.Cl	Escherichia coli	1
O/N=C\c1cccc2nc3c(nc12)-c1ccccc1/C3=N/O	Escherichia coli	0
O=Cc1cccc2nc3c(nc12)-c1ccccc1C3=O	Escherichia coli	0
O=C1c2ccccc2-c2nc3c(CN4CCCC4)cccc3nc21	Escherichia coli	0
O/N=C1\c2ccccc2-c2nc3ccccc3nc21	Escherichia coli	0
CN(C)CCCO/N=C1\c2ccccc2-c2nc3c(C(=O)O)cccc3nc21	Escherichia coli	0

* * *

targetOrTestSystem: DNA topoisomerase 1 (Homo sapiens)
protocolDetails: Inhibition of human DNA topoisomerase 1-mediated relaxation of supercoiled pBR322 DNA at 100 uM after 30 mins by ethidium bromide staining based agarose gel electrophoresis
Activity calls are given as the source filed them. No cut-off for these calls is given here.
Outcome codes: active, inactive

smilesStructure	targetOrTestSystem	discreteLabel
O=C1c2ccccc2-c2nc3c(CN4CCCC4)cccc3nc21	DNA topoisomerase 1 (Homo sapiens)	active
CN(C)CCCNC(=O)c1cccc2nc3c(nc12)-c1ccccc1/C3=N\OCCCN(C)C.Cl	DNA topoisomerase 1 (Homo sapiens)	active
CN(C)CCCO/N=C1\c2ccccc2-c2nc3c(C(=O)NCCN(C)C)cccc3nc21.Cl	DNA topoisomerase 1 (Homo sapiens)	active
Cl.c1ccc2c(c1)/C(=N\OCCN1CCCC1)c1nc3ccccc3nc1-2	DNA topoisomerase 1 (Homo sapiens)	active
CN(C)Cc1cccc2nc3c(nc12)-c1ccccc1C3=O	DNA topoisomerase 1 (Homo sapiens)	active
CN(C)CCCO/N=C1\c2ccccc2-c2nc3c(C(=O)O)cccc3nc21	DNA topoisomerase 1 (Homo sapiens)	inactive
O=C1c2ccccc2-c2nc3c(C(=O)NCCN4CCCC4)cccc3nc21	DNA topoisomerase 1 (Homo sapiens)	active
CN(C)CCCO/N=C1\c2ccccc2-c2nc3c(CN4CCCC4)cccc3nc21.Cl	DNA topoisomerase 1 (Homo sapiens)	active
Cc1cccc2nc3c(nc12)-c1ccccc1/C3=N\OCCCN(C)C.Cl	DNA topoisomerase 1 (Homo sapiens)	active
CN(C)CCCO/N=C1\c2ccccc2-c2nc3ccccc3nc21.Cl	DNA topoisomerase 1 (Homo sapiens)	active

* * *

protocolDetails: Antiproliferative activity against human PC3 cells after 72 hrs by XTT assay
Type: functional, cell-based
conditionLabel: PC-3, 72 h
pIC50: −log10 of the molar value.
readoutLabel: pIC50

smilesStructure	measured
CN(C)CCCO/N=C1\c2ccccc2-c2nc3c(C(=O)O)cccc3nc21	< 5.00
O=C1c2ccccc2-c2nc3c(C(=O)NCCN4CCOCC4)cccc3nc21	< 5.00
Cc1cccc2nc3c(nc12)-c1ccccc1C3=O	< 5.00

* * *

protocolDetails: Antiproliferative activity against human PC3 cells after 72 hrs by XTT assay
Format: functional, cell-based
conditionLabel: PC-3, 72 h
readoutLabel: IC50

smilesStructure	measured
O=C1c2ccccc2-c2nc3c(CN4CCOCC4)cccc3nc21	> 10 µM
O=Cc1cccc2nc3c(nc12)-c1ccccc1C3=O	> 10 µM
O=C1c2ccccc2-c2nc3c(CN4CCCC4)cccc3nc21	> 10 µM
